- test summary: NCI Yeast Anticancer Drug Screen. Data for the bub3 strain (AID 167)
- experimental context: S. cerevisiae bub3 mutant strain, at 3.7 µM, hits give high values
This is part of a sample that, as a whole, favours compounds with a hit. Of some 79,000 tested, about 15% had one in any assay.
Catalogue of growth inhibition values
# unit: % | format: bare number

Known growth inhibition results, listed for orientation:
{"compound": "CSC(=S)Nc1cc(C)ccn1", "result units": "%", "growth inhibition": 50}
{"compound": "CCCN(CCC)CC(O)c1cc(-c2ccc(Cl)cc2)nc2c(C)c(Cl)ccc12 (stereo unspecified)", "result units": "%", "growth inhibition": -6}
{"compound": "C=C(CN(C)C)C(=O)c1cc(C)ccc1C", "result units": "%", "growth inhibition": 28}
{"compound": "CCN(CC)C(=S)N/N=C(/C)c1cccc(/C(C)=N\\NC(=S)N(CC)CC)n1", "result units": "%", "growth inhibition": 13}
{"compound": "CCc1ncnc2cc(OCC3CO3)c(OC)cc12 (stereo unspecified)", "result units": "%", "growth inhibition": -7}

Request: Consider the compound shown here: Cc1ccc(Cl)c2[nH]c(-c3ccccc3)cc(=O)c12 What is its recorded growth inhibition?
Result: -2

Request: Consider the compound shown here: C=CC(C)(O)CCC1C(=C)C(O)CC2C(C)(C)CCCC12C (stereo unspecified) What is its recorded growth inhibition?
Result: 7

Request: Consider the compound shown here: OC1CSCCCSCCSCCCSC1 What is its recorded growth inhibition?
Result: 0

Request: Consider the compound shown here: COc1ccc(O)c(/C=N\Nc2ccccc2)c1 What is its recorded growth inhibition?
Result: -9

Request: Consider the compound shown here: CC(=O)ON1C(=O)c2cccc3cccc(c23)C1=O What is its recorded growth inhibition?
Result: 10

====

- test summary: NCI Yeast Anticancer Drug Screen. Data for the rad18 strain (AID 177)
- experimental context: S. cerevisiae rad18 mutant growth inhibition; at 100.0 µM; hits give high values
Compounds without any hit were thinned out: in the full panel of roughly 79,000, 15% have a hit.
readout: growth inhibition (%)
# unit: % | format: bare number

Known growth inhibition results, listed for orientation:
{"molecule": "C(CCSC1=NCCN1)CSC1=NCCN1 (tested in a mixture with another compound)", "readout": "growth inhibition", "observed result": 99}
{"molecule": "COC1=CC(=O)C2C(C1=O)C(c1ccc(Cl)cc1)[C@@H]2C (some centres not stated)", "readout": "growth inhibition", "observed result": 99}
{"molecule": "Cc1ccc(-c2ccc(Nc3c4ccccc4nc4ccccc34)cc2)cn1", "readout": "growth inhibition", "observed result": 86}

Request: Consider the molecule shown here: Nc1ncncc1C(C1=C(O)COC1=O)C1=C(O)COC1=O What is its recorded growth inhibition?
Result: -4

Request: Consider the molecule shown here: CCN(CC)[P+](c1ccccc1O)(N(CC)CC)N(CC)CC What is its recorded growth inhibition?
Result: 90

Request: Consider the molecule shown here: Cc1ccc(S(=O)(=O)Oc2cc(Cl)c(Cl)cc2Cl)cc1 What is its recorded growth inhibition?
Result: 11

====

- test summary: NCI Yeast Anticancer Drug Screen. Data for the rad18 strain (AID 177)
- experimental context: S. cerevisiae rad18 mutant growth inhibition; at 1.2 µM
Compounds without any hit were thinned out: in the full panel of roughly 79,000, 15% have a hit. The source made the active and inactive calls. Cut-off read from the data, not from the text of the source: active = growth inhibition above about 70%; inactive = the rest.
Please state which outcome applies, choosing from 1 for active, -1 for inactive

Take a look at these entries with their results.
{"molecule": "S=C(N/N=C(/c1ccccc1)c1ccccn1)N1CCCCCC1", "group": -1}
{"molecule": "Cc1cccc2c(C(O)CBr)cc(-c3ccc(Cl)cc3)nc12 (stereo unspecified)", "group": -1}
{"molecule": "CCC/C(Cl)=N\\OC(=O)Nc1cccc(C(F)(F)F)c1", "group": -1}
{"molecule": "CCOc1ccc2c(c1)c(CC(=O)O)cn2C", "group": -1}
{"molecule": "CC(C)[N+]([O-])(CCCNc1c2ccccc2nc2cccc([N+](=O)[O-])c12)C(C)C", "group": 1}

Request: Please let me know the test result on file for CCN(CC)CC(O)c1ccc2ccc3ccccc3c2c1 (stereo unspecified) .
Result: -1

Request: Please let me know the test result on file for COc1cc(C(=O)/C=C/c2ccccc2O)ccc1O .
Result: -1

Request: Please let me know the test result on file for COc1ccc2ccc3ccccc3c2c1C=O .
Result: -1

Request: Please let me know the test result on file for Cc1nc(-c2ccccc2)c(-c2ccccc2)s1 .
Result: -1

Request: Please let me know the test result on file for CCOC(=O)C1=C(C(=O)c2ccccc2)C(c2ccccc2[N+](=O)[O-])C(C(=O)c2ccccc2)=C(C(=O)OCC)N1 .
Result: -1

Request: Please let me know the test result on file for Oc1cccc2c(Cl)ccnc12 .
Result: -1

Request: Please let me know the test result on file for Cn1c(N)nc(-c2ccc(Cl)cc2)c1SSc1c(-c2ccc(Cl)cc2)nc(N)n1C .
Result: -1

Request: Please let me know the test result on file for C/C(=N\O)C1CC2C=C(C#N)C1N(Cc1ccccc1)C2 (stereo unspecified) .
Result: -1

Request: Please let me know the test result on file for Fc1ccc(NC(=S)SCc2ccc3c(c2)OCO3)cc1F .
Result: -1

Request: Please let me know the test result on file for CC(C)/C(Cl)=N\OC(=O)Nc1ccc(F)cc1 .
Result: -1

Request: Please let me know the test result on file for Cc1ccc(N)c(S)c1 .
Result: -1

Request: Please let me know the test result on file for O=C1CSC(/C=C/c2ccccc2)N1c1ccc(-c2ccc(-n3c(-c4ccccc4)nc4ccccc4c3=O)cc2)cc1 (stereo unspecified) .
Result: -1

Request: Please let me know the test result on file for CCCN(CCC)CC(O)c1cc(-c2ccc(Cl)cc2)nc2c(C)c(Cl)ccc12 (stereo unspecified) .
Result: -1

Request: Please let me know the test result on file for C=C(CN(C)C)C(=O)c1cc(C)ccc1C .
Result: -1

Request: Please let me know the test result on file for COc1cc(C2SCC(=O)N2c2ccc(-c3ccc(-n4c(-c5ccccc5)nc5ccccc5c4=O)cc3)cc2)cc(OC)c1OC (stereo unspecified) .
Result: -1

Request: Please let me know the test result on file for O=C1NC(=O)C2C3C=CC(C3)C12 (stereo unspecified) .
Result: -1

Request: Please let me know the test result on file for COc1cccc2nc3ccccc3nc12 .
Result: -1

Request: Please let me know the test result on file for Oc1c(Br)cc(Br)cc1C1CCCCC1 .
Result: -1

Request: Please let me know the test result on file for CC(Br)C(=O)c1ccc2cc(Br)c3ccccc3c2c1 (stereo unspecified) .
Result: -1

Request: Please let me know the test result on file for CC1=C(C)Cc2c(O)ccc(O)c2C1 .
Result: -1

Request: Please let me know the test result on file for CC(C(=O)N1C(=O)N(C(=O)[C@H](C)C(O)c2ccccc2)[C@H](c2ccccc2)[C@H]1c1ccccc1)[C@@H](O)c1ccccc1 (stereo partly specified) .
Result: -1

Request: Please let me know the test result on file for O=C(Nc1ccccc1)OCCc1ccc(Cl)c(Cl)c1 .
Result: -1

Request: Please let me know the test result on file for Oc1ccc2ccccc2c1C(c1ccc(Cl)cc1)c1c(O)ccc2ccccc12 .
Result: -1

Request: Please let me know the test result on file for O=C(c1cc(Br)ccc1O)c1cc(Br)ccc1O .
Result: -1

Request: Please let me know the test result on file for Cc1cc2c(cc1C(=O)CCC(=O)O)CC1(C2)Cc2cc(C)c(C(=O)CCC(=O)O)cc2C1 .
Result: -1

====

- test summary: NCI Yeast Anticancer Drug Screen. Data for the sgs1 mgt1 strain (AID 161);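 also: 0% = growth of cultures given vehicle only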
- experimental context: S. cerevisiae sgs1 mgt1 strain, at 50.0 µM
About 79,000 compounds went through this panel and 15% of them were active in at least one assay; those are over-represented in the sample as a whole. Activity calls are given as the source filed them. Cut-off read from the data, not from the text of the source: active = growth inhibition above about 70%; inactive = the rest.
Please state which outcome applies, choosing from active, inactive

Take a look at these entries with their results.
{"compound": "CSC(=S)Nc1cc(C)ccn1", "group": "active"}
{"compound": "[O-][n+]1c2ccc(O)cc2nc2ccc(Cl)cc21", "group": "inactive"}

Request: Please let me know the test result on file for CCCS(=O)(=O)Nc1ccc(Nc2c3ccccc3nc3ccccc23)c(OC)c1 .
Result: active

Request: Please let me know the test result on file for COc1cc2c(cc1[N+](=O)[O-])C(=O)C(Br)(Br)CCC2 .
Result: active

Request: Please let me know the test result on file for Cc1ccc2ccc(O)cc2c1 .
Result: active

Request: Please let me know the test result on file for CCCCN(CCCC)CCSc1ccc(Cl)cc1 .
Result: active

Request: Please let me know the test result on file for CCCCCCCCNC(=O)C1=C(C)NC(C)=C(C(=O)NCCCCCCCC)C1 .
Result: inactive

Request: Please let me know the test result on file for Fc1ccc(NC(=S)SCc2ccc3c(c2)OCO3)cc1F .
Result: active

Request: Please let me know the test result on file for NC(=O)NN=C(CS)CS .
Result: active

Request: Please let me know the test result on file for O=C1Nc2ccc(Cl)c(I)c2C1=O .
Result: inactive

Request: Please let me know the test result on file for c1ccc(-c2nc3cccnc3s2)cc1 .
Result: inactive

Request: Please let me know the test result on file for CC1(C)C(=O)OC(n2cc(F)c(=O)[nH]c2=O)C1=O (stereo unspecified) .
Result: inactive

Request: Please let me know the test result on file for Cc1ccc(Nc2nc3c(=O)n(C)c(=O)n(C)c3nc2Nc2ccc(C)cc2)cc1 .
Result: active

Request: Please let me know the test result on file for S=C(N/N=C/c1ccccn1)Nc1ccc(Cl)cc1 .
Result: active

Request: Please let me know the test result on file for CC[n+]1ccc2c(C)c3[nH]c4ccc(O)cc4c3c(C)c2c1 .
Result: inactive

Request: Please let me know the test result on file for S=c1[nH]nc(Nc2ccc(Cl)cc2)s1 .
Result: active

Request: Please let me know the test result on file for COc1ccccc1/C=C1\Sc2scc(-c3cccc([N+](=O)[O-])c3)[n+]2C1=O .
Result: active

Request: Please let me know the test result on file for COC(=O)C1=C(C)NC(C)=C(C(=O)OC)C1c1cccc(/[N+]([O-])=C/c2ccccc2)c1 .
Result: inactive
